System: Escherichia coli TOP10;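 note: peptides expressed intracellularly from a pBAD plasmid library in pooled LB shake-flask culture, induced with 0.3% L-arabinose, DNA abundance read by NGS, three biological replicates, DESeq2 with apeglm shrinkage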
assayRemarks: shrunken log2 fold change of peptide-encoding DNA abundance (4.5 h post-induction vs induction); higher = less antimicrobial activity (less host growth inhibition)
protocolConditions: time post-induction: 4.5 h; library: site-saturation at positions 5, 18, 19, 20
reportedProperty: shrunken log2 fold change
Provide a numeric answer; units are not to be included.

                     chain  recordedresult
0  RRIRDRPPRLPRPRPRPWINPRP          0.0363
1  RRIRYRPPRLPRPRPRPTDFPRP          -0.325
2  RRIRERPPRLPRPRPRPPSNPRP          -0.208
3  RRIRWRPPRLPRPRPRPPHFPRP           0.701
4  RRIRHRPPRLPRPRPRPFKHPRP          -0.454
5  RRIRARPPRLPRPRPRPMCVPRP           0.188
6  RRIRGRPPRLPRPRPRPKTTPRP           0.521
7  RRIRYRPPRLPRPRPRPMPWPRP         -0.0575

The sequence listed as `RRIRYRPPRLPRPRPRPNHCPRP` shows shrunken log2 fold change equal to 0.00938

The sequence listed as `RRIRFRPPRLPRPRPRPLALPRP` shows shrunken log2 fold change equal to -0.0762

The sequence listed as `RRIRFRPPRLPRPRPRPHKSPRP` shows shrunken log2 fold change equal to -0.396

The sequence listed as `RRIRQRPPRLPRPRPRPMIDPRP` shows shrunken log2 fold change equal to -0.517

The sequence listed as `RRIRHRPPRLPRPRPRPFFSPRP` shows shrunken log2 fold change equal to -0.253

The sequence listed as `RRIRVRPPRLPRPRPRPGQMPRP` shows shrunken log2 fold change equal to -0.0386

The sequence listed as `RRIRRRPPRLPRPRPRPWPNPRP` shows shrunken log2 fold change equal to -0.0193

Hello, the source for this data is the supplement of paper PMC9112550, in case you need it.
